Origin of the recorded values: PubChem BioAssay AID588849

study target: CAAX prenyl protease 2 (Homo sapiens) (UniProt Q9Y256)
Sequence (Q9Y256 whole entry, looked up): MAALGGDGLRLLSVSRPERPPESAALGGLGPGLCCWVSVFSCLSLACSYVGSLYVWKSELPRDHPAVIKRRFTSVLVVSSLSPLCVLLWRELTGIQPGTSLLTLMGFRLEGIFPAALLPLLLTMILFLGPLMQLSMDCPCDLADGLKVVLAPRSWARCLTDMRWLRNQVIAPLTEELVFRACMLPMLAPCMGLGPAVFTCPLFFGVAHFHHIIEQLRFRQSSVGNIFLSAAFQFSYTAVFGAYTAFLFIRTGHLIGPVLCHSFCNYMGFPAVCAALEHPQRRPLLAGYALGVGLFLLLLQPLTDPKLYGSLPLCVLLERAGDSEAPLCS
assay details: inhibition of Ras-converting CAAX protease Rce1 – biochemical, yeast membranes, quenched-peptide fluorescence, cherry-pick, dose response (AID 588849)
recorded conditions: yeast membrane fractions expressing human Rce1, quenched-peptide fluorescence, 4 h; series mostly up to 10 µM
Results with a measured potency or affinity are listed apart. Activity calls are given as the source filed them. The rule behind the calls is not given here.
quantity: outcome

Example results:
# molecule, result value
data = [
    ("c1ccn2cc(-c3ccc4c(c3)OCCO4)nc2c1", "inactive"),
    ("CCN(CC)CCN(C(=O)c1ccc2ccccc2c1)c1nc2cc3c(cc2s1)OCO3", "inactive"),
    ("CCOc1cccc(-c2c(C(=O)N/N=C/c3c(F)cccc3Cl)nnn2-c2nonc2N)c1", "inactive"),
    ("NC(=NCCCCCCN=C(N)/N=C(\\N)Nc1ccc(Cl)cc1)/N=C(\\N)Nc1ccc(Cl)cc1", "inactive"),
]

Please state, for each entry, its recorded outcome.
1. COCCN1C(=O)/C(=C/c2ccc(Oc3ccc([N+](=O)[O-])cn3)c(OC)c2)SC1=Nc1ccccc1
2. CC(C)C(=O)Nc1cccc(NC(=S)NC(=O)C(c2ccccc2)c2ccccc2)c1
3. O=S(=O)(c1ccccc1)c1nc(-c2ccco2)oc1N1CCCCC1
4. COc1cc2c(cc1OC)C(C)N(C(=O)c1cc3c(=O)oc4ccc(C)cc4c3s1)CC2 (stereo not given)
5. CC(C)CNC(=O)Nc1ccc(F)c(Cl)c1
6. OC1CCN(C(c2ccc3ncccc3c2)c2nnnn2C2CCCCC2)CC1 (stereo not given)

Result:
1. inactive
2. inactive
3. inactive
4. inactive
5. inactive
6. inactive
